These entries and their values trace back to patent US9314530B2.

For each record, write down the corresponding % of loss in the viscosity with respect to the reference composition.
Assay: Stability with regard to steam autoclaving: viscosity of non-crosslinked hyaluronic acid compositions (rheometer)
Format: physicochemical
Settings: after steam autoclaving; non-crosslinked hyaluronic acid + sulphated saccharide at 1 mg/g (procedure of Example 1); viscosity at 25° C., 0.02 s^−1
Experimental: For the compositions according to the invention comprising non-crosslinked hyaluronic acid, the viscosity η of the sterilized compositions after the steam autoclaving step is characterized on a TA Instruments AR 2000 Ex rheometer, under controlled constraint conditions, at 25° C. The viscosity value is recorded at a constraint of 0.02 s^−1. […]
Numbers only, in %.

Please review the entries below; each comes with its answer.
• O=S(=O)(O)N[C@H]1C(O)O[C@H](CO)[C@@H](O)[C@@H]1O (stereo partly drawn) [D-Glucosamine-2-sulphate, reference compound] = 87
• O=S(=O)([O-])OC[C@H]1O[C@@](COS(=O)(=O)[O-])(O[C@H]2O[C@H](COS(=O)(=O)[O-])[C@@H](OS(=O)(=O)[O-])[C@H](OS(=O)(=O)[O-])[C@H]2OS(=O)(=O)[O-])[C@@H](OS(=O)(=O)[O-])[C@@H]1OS(=O)(=O)[O-].[Na+].[Na+].[Na+].[Na+].[Na+].[Na+].[Na+].[Na+] [Sodium sucrose octasulphate] = 0
• N[C@H]1C(O)O[C@H](COS(=O)(=O)O)[C@@H](O)[C@@H]1O (stereo partly drawn) [D-Glucosamine-6-sulphate, reference compound] = 98

Turning now to a further record.
query: Quick one: % of loss in the viscosity with respect to the reference composition for CC(=O)N[C@H]1C(O)O[C@H](COS(=O)(=O)O)[C@@H](O)[C@@H]1O (stereo partly drawn) [N-Acetyl-D-glucosamine-6-sulphate, reference compound] ?
result: 96

====

Assay: Stability with regard to steam autoclaving: viscosity of non-crosslinked hyaluronic acid compositions (rheometer)
Type: physicochemical
Settings: after steam autoclaving; non-crosslinked hyaluronic acid + mannitol + sulphated saccharide at 1 mg/g (procedure of Example 3)
ASSAY READOUT: % of loss in the viscosity with respect to the reference composition (%)
Give bare numbers, in %.

Observe how each entry below is paired with its result.
- CC(=O)N[C@H]1C(O)O[C@H](COS(=O)(=O)O)[C@@H](O)[C@@H]1O (stereo partly drawn) [N-Acetyl-D-glucosamine-6-sulphate, reference compound]: 60
- O=S(=O)(O)N[C@H]1C(O)O[C@H](CO)[C@@H](O)[C@@H]1O (stereo partly drawn) [D-Glucosamine-2-sulphate, reference compound]: 25
- N[C@H]1C(O)O[C@H](COS(=O)(=O)O)[C@@H](O)[C@@H]1O (stereo partly drawn) [D-Glucosamine-6-sulphate, reference compound]: 90

Could you now look at the following compound, please?
query: Look up % of loss in the viscosity with respect to the reference composition for this compound: O=S(=O)([O-])OC[C@H]1O[C@@](COS(=O)(=O)[O-])(O[C@H]2O[C@H](COS(=O)(=O)[O-])[C@@H](OS(=O)(=O)[O-])[C@H](OS(=O)(=O)[O-])[C@H]2OS(=O)(=O)[O-])[C@@H](OS(=O)(=O)[O-])[C@@H]1OS(=O)(=O)[O-].[Na+].[Na+].[Na+].[Na+].[Na+].[Na+].[Na+].[Na+] [Sodium sucrose octasulphate]
result: 0
